meta.source: patent US7285687B2

- tested_system: CB2 receptor (Homo sapiens)
- Construct: expressed in transfected cells
- Sequence (P34972 whole entry): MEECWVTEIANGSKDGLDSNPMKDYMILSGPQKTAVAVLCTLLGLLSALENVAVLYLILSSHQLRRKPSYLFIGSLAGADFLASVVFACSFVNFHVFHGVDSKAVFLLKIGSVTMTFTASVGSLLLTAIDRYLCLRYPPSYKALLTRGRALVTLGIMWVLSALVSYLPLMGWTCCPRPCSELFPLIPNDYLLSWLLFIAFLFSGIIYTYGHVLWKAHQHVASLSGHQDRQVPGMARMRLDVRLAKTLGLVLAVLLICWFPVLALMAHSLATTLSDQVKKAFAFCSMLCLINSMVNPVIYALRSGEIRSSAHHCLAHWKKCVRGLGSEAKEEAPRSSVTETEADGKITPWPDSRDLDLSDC
- assay_comment: CB2 binding procedure, displacement of [3H]CP-55,940 from membranes of transfected CHO cells
- measurement_setup: ratio of CB1 Ki to CB2 Ki
# if value of CB1/CB2 reaches 10, tag condition met; if it stays below, tag condition not met

Prompt: Hello, I need to know if CCCCCCC(C)(C)c1cc(O)c(C2=CCCCC2)c(O)c1 [O-1423] has measured CB1/CB2 not below 10. Thanks!
Completion: condition not met

Prompt: Could you please find out whether CCCCCCC(C)(C)c1cc(O)c(C2CCCC(C)C2)c(O)c1 (single isomer, unassigned; isomer a) [O-1797A] has CB1/CB2 that meets 10 or exceeds it?
Completion: condition met

Prompt: Given CCCCCCC(C)(C)c1cc(OC)c(C2(O)CC(=O)CC(C)C2)c(OC)c1 (stereo not drawn) [O-2123] , state whether its CB1/CB2 is at least 10.
Completion: condition met

Prompt: Exam item: decide whether the reported CB1/CB2 for CCCCCCC(C)(C)c1cc(O)c(C2CCC(C)CC2)c(O)c1 (stereo not drawn) [O-1659] is at least 10.
Completion: condition not met

Prompt: Say whether CCCCCCC(C)(C)c1cc(OC)c(C2(O)CCC(O)CC2)c(OC)c1 (single isomer, unassigned) [O-2116A] shows CB1/CB2 of 10 or more.
Completion: condition met

Prompt: Is the recorded value of CB1/CB2 equal to or greater than 10 for this compound? CCCCCCC(C)(C)c1ccc(-c2cc(C)ccc2C(C)C)c(O)c1 [O-1376]
Completion: condition met

Prompt: Is CB1/CB2 at least 10? Consider CCCCCCC(C)(C)c1cc(OC)c(C2(O)CCCC(C)C2)c(OC)c1 (single isomer, unassigned; isomer 1) [O-1966A]
Completion: condition met

Prompt: Check if CB1/CB2 >= 10 (inclusive). Item: CCCCCCC(C)(C)c1cc(O)c(C2CCCCC2)c(O)c1 [O-1422]
Completion: condition not met

Prompt: Could you verify whether the entry CCCCCCC(C)(C)c1cc(OC)c(C23CCC(O)CC2O3)c(OC)c1 (stereo not drawn) [O-2122] shows CB1/CB2 of no less than 10?
Completion: condition not met

Prompt: Does the compound CCCCCCC(C)(C)c1cc(O)c([C@H]2CCCC(C)C2)c(O)c1 (stereo in doubt) [O-1826] have recorded CB1/CB2 that is 10 or more?
Completion: condition met

Prompt: Would you say CCCCCCC(C)(C)c1cc(O)c(C2CCCCC2C)c(O)c1 (stereo not drawn) [O-1658] shows CB1/CB2 at minimum 10?
Completion: condition met

Prompt: Please indicate if the recorded CB1/CB2 for CCCCCCC(C)(C)c1cc(O)c(C2CCC(c3ccccc3)CC2)c(O)c1 (stereo not drawn) [O-1663] meets or exceeds 10.
Completion: condition met

Prompt: // inclusive: CB1/CB2 at least 10? input: CCCC(C)(C)c1ccc(-c2cc(C)ccc2C(C)C)c(O)c1 [O-1532]
Completion: condition not met

Prompt: Exam item: decide whether the reported CB1/CB2 for CCCCCCC(C)(C)c1cc(OC)c(C2(O)CCCC(C)(C)C2)c(OC)c1 (stereo not drawn) [O-2068] is at least 10.
Completion: condition met

Prompt: Is CB1/CB2 for CCCCCCC(C)(C)c1cc(O)c(C2CCCCCC2)c(O)c1 [O-1656] at or above 10?
Completion: condition not met
